These entries and their values trace back to patent US6555546B2.

- Test system: Beagle dogs
- assay remarks: MgSO4 induced intestinal lavage in dogs
- Assay type: in vivo, dog
- condition: Canis lupus familiaris; po, 1 hour before oral MgSO4 (200 ml); liquid stools within 4 hours; read-out: MgSO4 induced intestinal lavage ED50 (95% c.l.)
Param label: returns MET when ED50 < 0.02 mg/kg, returns NOT MET otherwise, including exact equality.

[
  {
    "molecule": "CN1[C@@H]2CC[C@H]1C[C@@H](OC(=O)c1cc(Cl)cc(Cl)c1)C2",
    "discrete label": "NOT MET"
  },
  {
    "molecule": "COc1cc(N)c(Cl)cc1C(=O)NC1CCN2CCCC1C2 (racemic) [(±)-Renzapride]",
    "discrete label": "NOT MET"
  },
  {
    "molecule": "CN1[C@@H]2CC[C@H]1C[C@@H](OC(=O)c1c[nH]c3ccccc13)C2 [(endo)-Tropisetron]",
    "discrete label": "NOT MET"
  },
  {
    "molecule": "Cc1nccn1CC1CCc2c(c3ccccc3n2C)C1=O (racemic) [(±)-Ondansetron]",
    "discrete label": "NOT MET"
  },
  {
    "molecule": "CN1C2CCCC1CC(NC(=O)c1nn(C)c3ccccc13)C2 (stereo not drawn) [(endo)-Granisetron]",
    "discrete label": "MET"
  },
  {
    "molecule": "CCn1c(=O)n(C(=O)OC2C[C@H]3CC[C@@H](C2)N3C)c2ccccc21 (stereo partly shown)",
    "discrete label": "NOT MET"
  },
  {
    "molecule": "CO[C@@H]1CN(CCCNc2nccc(=O)[nH]2)CC[C@@H]1NC(=O)c1cc(Cl)c(N)c2c1OC(C)(C)C2 (relative stereo)",
    "discrete label": "MET"
  },
  {
    "molecule": "CC(C)n1c(=O)n(C(=O)N[C@H]2C[C@H]3CC[C@@H](C2)N3C)c2ccccc21",
    "discrete label": "MET"
  },
  {
    "molecule": "Cn1cc(C(=O)[C@@H]2CCc3nc[nH]c3C2)c2ccccc21 [(−)-YM-060]",
    "discrete label": "MET"
  },
  {
    "molecule": "COc1cc(N)c(Cl)cc1C(=O)NC1CN2CCC1CC2 (racemic) [(±)-Zacopride]",
    "discrete label": "NOT MET"
  }
]

====

- test target: 5HT3 receptor (Mus musculus, UniProt P23979)
- Construct: Cells were homogenized in tris.HCl buffer; endogenous in cells; host or cells: NxG 108CC15 (NG108-15) cell membranes
- Sequence (P23979 24-489): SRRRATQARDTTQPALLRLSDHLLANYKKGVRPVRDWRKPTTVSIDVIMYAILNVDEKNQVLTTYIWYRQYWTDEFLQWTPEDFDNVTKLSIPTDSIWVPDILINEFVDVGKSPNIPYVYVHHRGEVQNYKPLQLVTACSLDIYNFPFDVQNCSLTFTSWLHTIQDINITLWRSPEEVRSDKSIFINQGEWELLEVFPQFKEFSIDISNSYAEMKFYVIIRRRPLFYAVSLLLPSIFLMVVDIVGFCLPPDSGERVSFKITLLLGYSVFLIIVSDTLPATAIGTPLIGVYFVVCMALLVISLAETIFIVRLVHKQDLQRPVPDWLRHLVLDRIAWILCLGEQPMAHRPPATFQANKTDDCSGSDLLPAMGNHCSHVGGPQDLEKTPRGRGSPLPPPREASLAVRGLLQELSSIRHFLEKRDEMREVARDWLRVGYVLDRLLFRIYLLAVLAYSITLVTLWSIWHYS
- assay remarks: In vitro 5HT3 receptor binding with [3H]GR 65630
- condition: N×G 108CC15 cell membranes, [3H]GR 65630 2 nM, 60 min 37° C; logarithmic mean and 95% confidence limits; read-out: 5HT3 receptor Ki (95% c.l.)
pKi: −log10 of the molar value.

[
  {
    "compound": "CO[C@@H]1CN(CCCNc2nccc(=O)[nH]2)CC[C@@H]1NC(=O)c1cc(Cl)c(N)c2c1OC(C)(C)C2 (relative stereo)",
    "pKi": 9.24
  }
]
